# System: HL-60(TB) leukemia
# assay.explanation: NCI-60 one-dose screen, 48 h
# run.conditions: 10 µM unless noted
# Procedure: Growth inhibition of the HL-60(TB) human tumor cell line is measured as a screen for anti-cancer activity. Cells are grown in 96 well plates and exposed to the test compound for 48 hours. Compounds are tested at a single concentration, which is 10^-5 M for most compounds. The reported endpoint is percent growth (GI% or GIPRCNT), where numbers from 0 - 100% represent growth inhibition, and numbers from -100% - 0 represent cell death. For example, a value of 40 represents 60% growth inhibition. […]
Compounds without any hit were thinned out: in the full panel of roughly 83,000, 20% have a hit. Calls of active or inactive are those of the source. The calls were made as follows: active = growth percent below 10; inactive = the rest.
Assign a class; possible classes are y = active, n = inactive

Before answering, review these 5 worked examples.
compound	group
CN(C)CCN1C(=O)c2c(c3c4ccccc4n4c3c3c2c2ccccc2n3C2CC(O)C(O)C4(C)O2)C1=O (stereo not given)	n
FC(F)(F)c1ccc2nc(-c3nc(-c4ccccc4)n4ccccc34)[nH]c2c1	n
O=S(=O)(NCCNc1nccc(-c2c(-c3cccc(O)c3)nc3occn23)n1)c1ccccc1	n
O=C(/C=C/C(=O)c1ccccc1)c1ccccc1	n
CNC(=O)c1ccccc1Sc1ccc2c(/C=C/c3ccccn3)n[nH]c2c1	n

Query block: Answer briefly: the call reported for O=c1cc(NC2CCN(CCCc3ccccc3)CC2)c2cc(Cl)ccc2o1 in this assay.
Result block: y

Query block: Can you look up the reported call for Nc1n[nH]c2ccc([C@@H]3Nc4c(F)cc5[nH]ncc5c4[C@H]4C5CCC(C5)[C@@H]34)cc12 (stereo not given in full) for me?
Result block: y

Query block: Would you mind telling me which call this test gave CCCCCCCCCCCCC1CCC/C=C\CCC(=O)O1 (stereo not given) ?
Result block: n

Query block: Please share the test call associated with CCCCCCCC(=O)SCC/C=C/[C@@H]1CC(=O)NCc2nc(cs2)C2=N[C@@](C)(CS2)C(=O)N[C@@H](C(C)C)C(=O)N1 .
Result block: y

Query block: Recorded test outcome, item CCNC(=O)Oc1ccc(/C(=C(\C)c2ccccc2)c2ccc(OCCN(CC)CC)cc2)cc1
Result block: n
